Target: TRKA (Homo sapiens (Human))
Test: Isolated TRK enzyme assay (HTRF KinEASE-TK), TRKA
Format: biochemical
Settings: read-out: Trka enzyme (IC50)
Property measured: IC50 (nM)
Please give a number only; it is taken to be in nM.

// solved cases for IC50 follow
Cc1ccc2ccc(CC(=O)Nc3cncc(C(=O)c4cn(C(C)C)c5ncncc45)c3)cc2n1 : 49.1
N#Cc1ccc(CC(=O)Nc2cncc(C(=O)c3cn(C4(CO)CC4)c4ncncc34)c2)cc1 : 43.7
CC(C)(CO)n1cc(C(=O)c2cncc(NC(=O)Cc3ncc(Cl)cn3)c2)c2cnc(N)nc21 : 34.4

Proceeding to the next molecule to report its IC50.
Find the recorded IC50 belonging to `CC(C)n1cc(C(=O)c2cncc(NC(=O)Cc3ccc(C(F)(F)F)cc3)c2)c2cnc(N)nc21` and report it. 4.69

====

Target: TRKA (Homo sapiens (Human), UniProt P04629)
Sequence (P04629 441-796): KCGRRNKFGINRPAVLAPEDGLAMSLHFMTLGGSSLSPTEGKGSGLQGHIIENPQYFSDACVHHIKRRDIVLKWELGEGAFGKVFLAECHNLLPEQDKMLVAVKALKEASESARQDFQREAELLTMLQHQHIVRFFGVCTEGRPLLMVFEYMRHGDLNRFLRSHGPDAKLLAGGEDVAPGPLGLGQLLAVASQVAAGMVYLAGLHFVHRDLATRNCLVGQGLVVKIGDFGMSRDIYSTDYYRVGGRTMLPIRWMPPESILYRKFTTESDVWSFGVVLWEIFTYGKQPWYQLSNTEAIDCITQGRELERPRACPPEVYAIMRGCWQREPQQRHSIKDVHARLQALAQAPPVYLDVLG
Experiment: Isolated TRK enzyme assay (HTRF KinEASE-TK), TRKA
Type: biochemical
Details: read-out: Trka enzyme (IC50)
Hi! Could you tag entries with IC50 below 200 nM as Y, and those at or above as N? Much appreciated.

Here's what some known entries look like.
CC(C)n1cc(C(=O)c2cncc(NC(=O)c3nn(C)c4ccccc34)c2)c2cncnc21 [Example 382] : Y
CC(C)n1cc(C(=O)c2cncc(NC(=O)c3cnccc3C(F)(F)F)c2)c2cncnc21 [Example 451] : N
CC(C)c1cn(CC(=O)Nc2cncc(C(=O)c3cn([C@H](C)CO)c4ncncc34)c2)nn1 [Example 206] : Y
Cc1nccn1CC(=O)Nc1cncc(C(=O)c2cn(C(C)C)c3ncncc23)c1 [Example 359] : N
Cc1ccc(CC(=O)Nc2cncc(C(=O)c3cn(C)c4ncncc34)c2)cc1 [Example 186] : N

# TODO verify IC50 < 200 nM strictly for this compound: CC(C)n1cc(C(=O)c2cncc(NC(=O)Cc3ccc4nnnn4n3)c2)c2cncnc21 [Example 157] Y

Same question for CC1(n2cc(C(=O)c3cncc(NC(=O)Cc4cccc(C(F)(F)F)c4)c3)c3cncnc32)COC1 [Example 572] please. Y

Same question for CC(C)n1cc(C(=O)c2cncc(NC(=O)c3ccc4nnnn4c3)c2)c2cncnc21 [Example 502] please. N

Same question for CC(C)n1cc(C(=O)c2cncc(NC(=O)Cc3ccn(-c4ccccc4)c3)c2)c2cncnc21 [Example 140] please. N

Same question for CC(C)n1cc(C(=O)c2cncc(NC(=O)c3cnc4cc[nH]c4c3)c2)c2cncnc21 [Example 505] please. N

Same question for CC(C)n1cc(C(=O)c2cncc(NC(=O)Cn3ncc4cc(F)ccc43)c2)c2cncnc21 [Example 95] please. Y

====

Molecular target: TRKB (Homo sapiens (Human), UniProt Q16620)
Sequence (Q16620 32-822 limits assumed): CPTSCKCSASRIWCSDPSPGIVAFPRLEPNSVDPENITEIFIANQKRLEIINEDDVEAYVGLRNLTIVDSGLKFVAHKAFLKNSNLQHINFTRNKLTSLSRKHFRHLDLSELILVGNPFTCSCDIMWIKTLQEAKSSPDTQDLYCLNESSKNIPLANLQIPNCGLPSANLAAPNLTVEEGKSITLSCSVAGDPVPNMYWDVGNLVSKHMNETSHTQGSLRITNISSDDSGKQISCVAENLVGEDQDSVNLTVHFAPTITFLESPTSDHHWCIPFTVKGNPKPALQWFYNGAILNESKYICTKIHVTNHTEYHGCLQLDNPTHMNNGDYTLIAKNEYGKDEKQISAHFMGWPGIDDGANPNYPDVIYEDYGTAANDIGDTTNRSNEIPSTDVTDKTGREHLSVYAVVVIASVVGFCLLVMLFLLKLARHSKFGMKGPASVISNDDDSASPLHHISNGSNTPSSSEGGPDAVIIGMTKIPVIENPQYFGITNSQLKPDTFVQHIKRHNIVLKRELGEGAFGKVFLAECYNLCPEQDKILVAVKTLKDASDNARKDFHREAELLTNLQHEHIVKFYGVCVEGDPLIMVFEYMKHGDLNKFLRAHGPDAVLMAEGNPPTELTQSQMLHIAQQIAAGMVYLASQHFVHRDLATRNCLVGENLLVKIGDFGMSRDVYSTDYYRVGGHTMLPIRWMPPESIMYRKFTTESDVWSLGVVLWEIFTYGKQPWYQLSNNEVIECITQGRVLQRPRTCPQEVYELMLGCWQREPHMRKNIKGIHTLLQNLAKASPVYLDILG
Experiment: biochemical
Details: TrkB enzyme potency
pIC50: −log10 of the molar value.
Just so you know, the groups by pIC50 go like this: low-valued = under 6, mid-valued = from 6 up to 7, high-valued = 7 and over

Here's what some known entries look like.
C[C@@H](CO)n1cc(C(=O)c2cncc(NC(=O)Cn3nc4ccccc4n3)c2)c2cncnc21 [Example 15] : mid-valued
C[C@H](CO)n1cc(C(=O)c2cncc(NC(=O)Cc3ccc(Cl)cc3)c2)c2cncnc21 [Example 24] : mid-valued

In plain terms, what class is C[C@H](CO)n1cc(C(=O)c2cncc(NC(=O)Cc3ccc(F)cn3)c2)c2cncnc21 [Example 19] ? low-valued

Same question for Cc1cc(C(F)(F)F)nn1CC(=O)Nc1cncc(C(=O)c2cn(C(C)(C)CO)c3ncncc23)c1 [Example 26] please. high-valued

Same question for C[C@@H](CO)n1cc(C(=O)c2cncc(NC(=O)Cc3ccc(Cl)cc3)c2)c2cncnc21 [Example 11] please. mid-valued

Same question for CC(C)(CO)n1cc(C(=O)c2cncc(NC(=O)Cn3nc4ccccc4n3)c2)c2cnc(N)nc21 [Example 55] please. mid-valued

The measurements presented in this section are drawn from patent US8846698B2.
